// data source = ChEMBL document CHEMBL1143693

Exercise: state measured pIC50 for each of the molecules provided.
- System: Human gammaherpesvirus 4
- assay_remarks: Inhibition of TPA-induced Epstein-Barr virus early antigen activation in Raji cells after 48 hrs
- Type: functional, organism-based
- particulars: human gammaherpesvirus 4, Raji
Value format note: pIC50 is -log10 of concentration (mol/L); just state the number.

Request: Check the records and state pIC50 for CC1=C(/C=C/C(C)=C/C=C/C(C)=C/C(=O)O)C(C)(C)CCC1
Response: 7.81

Request: Check the records and state pIC50 for C=C(C)[C@@H](C)CC[C@@H](C)[C@H]1CC[C@@]2(C)[C@@H]3CC[C@H]4[C@@H](C)C(=O)CC[C@@]45C[C@@]35CC[C@]12C
Response: 8.00

Request: Check the records and state pIC50 for C[C@H](C/C=C/C(C)(C)O)[C@H]1CC[C@@]2(C)[C@@H]3CC[C@H]4C(C)(C)C(=O)CC[C@@]45C[C@@]35CC[C@]12C
Response: 8.07

Request: Check the records and state pIC50 for C=C(CC[C@@H](C)[C@H]1CC[C@@]2(C)[C@@H]3CC[C@H]4CC(=O)CC[C@@]45C[C@@]35CC[C@]12C)C(C)C
Response: 7.99

Request: Check the records and state pIC50 for CC(=O)O[C@@H]1CC[C@]23C[C@]24CC[C@]2(C)[C@@H]([C@H](C)CCC=C(C)C)CC[C@@]2(C)[C@@H]4CC[C@H]3C1(C)C
Response: 7.99

Request: Check the records and state pIC50 for C=C(CC[C@@H](C)[C@H]1CC[C@@]2(C)[C@@H]3CC[C@H]4[C@H](C)C(=O)CC[C@@]45C[C@@]35CC[C@]12C)C(C)C
Response: 7.99

###

- Tested on: Human gammaherpesvirus 4
- assay_remarks: Inhibition of TPA-induced Epstein-Barr virus early antigen activation in Raji cells after 48 hrs
- Type: functional, organism-based
- particulars: human gammaherpesvirus 4, Raji
Exercise: state measured IC50 for each of the compounds provided.
Write it as a number; the unit nM goes unstated.

Request: Check the records and state IC50 for C[C@@H]1[C@@H](O)CC[C@]23C[C@]24CC[C@]2(C)[C@@H]([C@H](C)CC[C@H](O)C(C)(C)O)CC[C@@]2(C)[C@@H]4CC[C@@H]13
Response: 6.7

Request: Check the records and state IC50 for C=C(CC[C@@H](C)[C@H]1CC[C@@]2(C)[C@@H]3CC[C@H]4[C@@H](C)C(=O)CC[C@@]45C[C@@]35CC[C@]12C)C(C)C
Response: 10.2

Request: Check the records and state IC50 for C=C(CC[C@@H](C)[C@H]1CC[C@@]2(C)[C@@H]3CC[C@H]4C(C)(C)[C@@H](O)CC[C@@]45C[C@@]35CC[C@]12C)C(C)C
Response: 8.8

Request: Check the records and state IC50 for CC(C)=CCC[C@@H](C)[C@H]1CC[C@@]2(C)[C@@H]3CC[C@H]4C(C)(C)[C@H](O)CC[C@@]45C[C@@]35CC[C@]12C
Response: 9.2

###

- Tested on: Human gammaherpesvirus 4
- assay_remarks: Inhibition of TPA-induced Epstein-Barr virus early antigen activation in Raji cells after 48 hrs
- Type: functional, organism-based
- particulars: human gammaherpesvirus 4, Raji
Would you mind sorting the entries by IC50 according to these classes? I: < 9 nM; II: ≥ 9 nM and < 10 nM; III: ≥ 10 nM

Request: Which of the defined bands does the recorded IC50 of C[C@H](CCC(O)C(C)(C)O)[C@H]1CC[C@@]2(C)[C@@H]3CC[C@H]4C(C)(C)C(=O)CC[C@@]45C[C@@]35CC[C@]12C (some centres not stated) sit within?
Response: I

Request: Which of the defined bands does the recorded IC50 of CC(C)CCC[C@@H](C)[C@@H]1CC[C@@]2(C)[C@@H]3CC[C@H]4C(C)(C)[C@@H](O)CC[C@@]45C[C@@]35CC[C@]12C sit within?
Response: II

Request: Which of the defined bands does the recorded IC50 of C=C(CC[C@@H](C)[C@H]1CC[C@@]2(C)[C@@H]3CC[C@H]4[C@@H](C)[C@@H](O)CC[C@@]45C[C@@]35CC[C@]12C)C(C)C sit within?
Response: II

Request: Which of the defined bands does the recorded IC50 of COc1cc(/C=C/C(=O)O[C@H]2CC[C@]34C[C@]35CC[C@]3(C)[C@@H]([C@H](C)CCC=C(C)C)CC[C@@]3(C)[C@@H]5CC[C@H]4C2(C)C)ccc1O sit within?
Response: III

Request: Which of the defined bands does the recorded IC50 of C=C(CC[C@@H](C)[C@H]1CC[C@@]2(C)[C@@H]3CC[C@H]4C[C@@H](O)CC[C@@]45C[C@@]35CC[C@]12C)C(C)C sit within?
Response: II

Request: Which of the defined bands does the recorded IC50 of CC(C)=CCC[C@@H](C)[C@H]1CC[C@@]2(C)[C@@H]3CC[C@H]4[C@H](C)[C@@H](O)CC[C@@]45C[C@@]35CC[C@]12C sit within?
Response: II
